normalized growth: recorded values
Test: chemical genetic growth profiling, strain panel (AID 1159580);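 note: tested at 20 µM; growth read once vehicle control cultures reached saturation at 30 °C; 1 = growth at the plate median or of vehicle wells; lower values mean less growth of the strain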
Conditions: S. cerevisiae deletion strains, growth OD, locus YDR001C, strain nth1, active compounds read low
About 2,000 (36%) of roughly 5,500 compounds were called active. Not shown: some 18% with an inconclusive outcome. This is one part of the list.
No unit in the answer, please; the number alone is enough.

Sample answers from the record:
O=C(O)c1cc(=O)c(O)c2c(O)c(O)ccc2c1; 0.997
O=C(O)c1cc(O)c(O)c(O)c1; 1.01
COc1cc2c(cc1O)CC1c3c(cc(O)c(OC)c3-2)CCN1C (stereo not given); 1.01
NC(=O)N/N=C\c1ccc([N+](=O)[O-])o1; 0.991
O=C1CN(/N=C\c2ccc([N+](=O)[O-])o2)C(=O)N1; 0.975
CC(=O)O[C@H]1CC[C@@]2(C)C(=CCC3C2CC[C@@]2(C)C3CC[C@@H]2C(C)CCCC(C)C)C1 (stereo not given in full); 0.993

// sample NC(=O)c1ccc(N)nc1 , its normalized growth was 1.01

// sample CC(=O)O[C@H]1CC[C@@]2(C)C(=CCC3C2CC[C@]2(C)C(=O)CCC32)C1 (stereo not given in full) , its normalized growth was 1.04

// sample CC(=O)O[C@H]1C[C@@H](OC(C)=O)C(C)(C)C2C[C@@H](OC(C)=O)[C@]3(C)C(CC[C@@]4(C)[C@H](c5ccoc5)C(=O)[C@H]5O[C@]543)[C@]21C (stereo not given in full) , its normalized growth was 0.981

// sample O=C(O)c1cc(=O)c(O)c2c(O)c(O)c(O)cc2c1 , its normalized growth was 0.846
